# GI50 annotations
# Test system: UO-31
# PROTOCOL_SUMMARY: NCI tumour cell line growth inhibition, 48 h
The source made the active and inactive calls. Cut-off read from the data, not from the text of the source: active = GI50 up to about 1.1 µM and inactive = higher.

A selection of reference data follows.
>  <MOLECULE>
CN(CCC(=O)O)C1=Nc2ccc(Cl)cc2C(c2ccccc2)=[N+]([O-])C1

>  <TGT>
UO-31

>  <GI50>
> 100 µM (inactive)

$$$$
>  <MOLECULE>
C(=C\c1cc[n+](CCc2ccccc2)cc1)/c1ccccc1

>  <TGT>
UO-31

>  <GI50>
> 100 µM (inactive)

$$$$
>  <MOLECULE>
COc1cc(/C=C/c2ccncc2)cc(OC)c1OC

>  <TGT>
UO-31

>  <GI50>
24.4 µM (inactive)

$$$$

Give me measured GI50, please, for this molecule: `O=C(/C=C\c1ccc(-c2ccccc2)cc1)c1cccs1`
16.6 µM (inactive)

Give me measured GI50, please, for this molecule: `CCCO[C@@H]1[C@@H](OC(C)=O)[C@@H](OC(C)=O)C(C)(C)/C=C/[C@H](C)C(=O)[C@@]2(OC(C)=O)C[C@@](C)(OC(C)=O)[C@H](OC(C)=O)[C@@H]2[C@H]2OC(=O)CC[C@@]12OC(=O)c1ccccc1`
> 25 µM (inactive)

Give me measured GI50, please, for this molecule: `CS(=O)(=O)OC1CCN(C2(c3cccc(O)c3)CCCCC2)CC1`
44.7 µM (inactive)

Give me measured GI50, please, for this molecule: `Clc1cccc(/N=C/C=C/Nc2cccc(Cl)c2)c1`
16 µM (inactive)

Give me measured GI50, please, for this molecule: COC(=O)C(Cc1c[nH]c2ccccc12)NC(=O)c1ccc(-c2ccc(Cl)cc2Cl)o1 (centres undefined)
45.4 µM (inactive)

Give me measured GI50, please, for this molecule: CC(C)[Si](OC12CCC(CC1O)CC2CO)(C(C)C)C(C)C (centres undefined)
13.9 µM (inactive)

Give me measured GI50, please, for this molecule: `O=[N+]([O-])c1cc(Cl)cc2c1nc(NCCO)c1ccccc12`
24.1 µM (inactive)

Give me measured GI50, please, for this molecule: `CC(C)(C)OC(=O)[C@H]1CCC(=S)N1Cc1ccccc1`
> 100 µM (inactive)

Give me measured GI50, please, for this molecule: `COc1cc(-c2cc(=O)c3c(OC)c(OC)c(OC)cc3o2)c(OC)c(OC)c1OC`
57.3 µM (inactive)

Give me measured GI50, please, for this molecule: `CCOC(=O)C1=C(C)NC(C)=C(C(=O)OCC)C1c1ccc(Cl)cc1`
20.3 µM (inactive)

Give me measured GI50, please, for this molecule: C[S+]([O-])c1cc(=O)c2ccccc2s1 (centres undefined)
11.9 µM (inactive)

Give me measured GI50, please, for this molecule: COC1C=C(NCC2(CO)CCC2)N=C(N)N1 (centres undefined)
> 100 µM (inactive)

Give me measured GI50, please, for this molecule: `CO[C@H]1O[C@@H]2CO[C@@H](c3ccccc3)O[C@H]2C[C@]12CCC/C=C\CO2`
14.3 µM (inactive)

Give me measured GI50, please, for this molecule: CCOC(=O)CCC(NC(=O)Cc1ccc(Oc2nc3ccccc3nc2-c2cccs2)cc1)C(=O)OCC (centres undefined)
22.6 µM (inactive)

Give me measured GI50, please, for this molecule: `COc1ccc(OC)c(/C=N/N=C(\N)NO)c1`
14.2 µM (inactive)

Give me measured GI50, please, for this molecule: CC1(C)C2CC(c3ccncc3)ON2C(C)(C)N1O (centres undefined)
> 100 µM (inactive)
